Biological target: c-Src kinase domain (Homo sapiens, UniProt P12931)
Test: pTyr-Var library bacterial peptide display kinase screen (enrichment scores);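 further: log2 fold change in enrichment of variant over reference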
Assay type: biochemical
Details: sheet "Src"; variant peptide versus its reference peptide in the pTyr-Var library screen
endpoint.name: Screen
Keep it simple and answer with nothing but the number.

residue.string | Screen
PEPHIYAVADV [MYO9A_Y216_L211P] | 0.7992
LRWREYQRQDF [PRKRIP1_Y90_R87W_YF] | 1.62
SVMAEYGLFAA [VSX2_Y219_G223A_YF] | -0.3175
QNTGDYCDLFG [PTPN11_Y62_Y63C_YF] | -0.9656
AHARMYGVLPW [PLP1_Y207_D203H] | -1.491

Request: For the sequence shown here, PPDGEYFTLQI [TP53_Y327_L323P] , give the reported Screen.
Response: 0.5031

Request: For the sequence shown here, PLDEEYFTLQI [TP53_Y327_G325E] , give the reported Screen.
Response: -0.5709

Request: For the sequence shown here, SVETPYVSVTF [NDRG2_Y47_G48V] , give the reported Screen.
Response: -1.163

Request: For the sequence shown here, NREGVYRVFAP [TGFBI_Y537_T538R] , give the reported Screen.
Response: -0.9266
